- Measured on: HiBit-BRG1 fusion protein (Homo sapiens, UniProt P51532)
- Construct: expressed in transfected cells
- Sequence (P51532 whole entry, the tested form may be a part): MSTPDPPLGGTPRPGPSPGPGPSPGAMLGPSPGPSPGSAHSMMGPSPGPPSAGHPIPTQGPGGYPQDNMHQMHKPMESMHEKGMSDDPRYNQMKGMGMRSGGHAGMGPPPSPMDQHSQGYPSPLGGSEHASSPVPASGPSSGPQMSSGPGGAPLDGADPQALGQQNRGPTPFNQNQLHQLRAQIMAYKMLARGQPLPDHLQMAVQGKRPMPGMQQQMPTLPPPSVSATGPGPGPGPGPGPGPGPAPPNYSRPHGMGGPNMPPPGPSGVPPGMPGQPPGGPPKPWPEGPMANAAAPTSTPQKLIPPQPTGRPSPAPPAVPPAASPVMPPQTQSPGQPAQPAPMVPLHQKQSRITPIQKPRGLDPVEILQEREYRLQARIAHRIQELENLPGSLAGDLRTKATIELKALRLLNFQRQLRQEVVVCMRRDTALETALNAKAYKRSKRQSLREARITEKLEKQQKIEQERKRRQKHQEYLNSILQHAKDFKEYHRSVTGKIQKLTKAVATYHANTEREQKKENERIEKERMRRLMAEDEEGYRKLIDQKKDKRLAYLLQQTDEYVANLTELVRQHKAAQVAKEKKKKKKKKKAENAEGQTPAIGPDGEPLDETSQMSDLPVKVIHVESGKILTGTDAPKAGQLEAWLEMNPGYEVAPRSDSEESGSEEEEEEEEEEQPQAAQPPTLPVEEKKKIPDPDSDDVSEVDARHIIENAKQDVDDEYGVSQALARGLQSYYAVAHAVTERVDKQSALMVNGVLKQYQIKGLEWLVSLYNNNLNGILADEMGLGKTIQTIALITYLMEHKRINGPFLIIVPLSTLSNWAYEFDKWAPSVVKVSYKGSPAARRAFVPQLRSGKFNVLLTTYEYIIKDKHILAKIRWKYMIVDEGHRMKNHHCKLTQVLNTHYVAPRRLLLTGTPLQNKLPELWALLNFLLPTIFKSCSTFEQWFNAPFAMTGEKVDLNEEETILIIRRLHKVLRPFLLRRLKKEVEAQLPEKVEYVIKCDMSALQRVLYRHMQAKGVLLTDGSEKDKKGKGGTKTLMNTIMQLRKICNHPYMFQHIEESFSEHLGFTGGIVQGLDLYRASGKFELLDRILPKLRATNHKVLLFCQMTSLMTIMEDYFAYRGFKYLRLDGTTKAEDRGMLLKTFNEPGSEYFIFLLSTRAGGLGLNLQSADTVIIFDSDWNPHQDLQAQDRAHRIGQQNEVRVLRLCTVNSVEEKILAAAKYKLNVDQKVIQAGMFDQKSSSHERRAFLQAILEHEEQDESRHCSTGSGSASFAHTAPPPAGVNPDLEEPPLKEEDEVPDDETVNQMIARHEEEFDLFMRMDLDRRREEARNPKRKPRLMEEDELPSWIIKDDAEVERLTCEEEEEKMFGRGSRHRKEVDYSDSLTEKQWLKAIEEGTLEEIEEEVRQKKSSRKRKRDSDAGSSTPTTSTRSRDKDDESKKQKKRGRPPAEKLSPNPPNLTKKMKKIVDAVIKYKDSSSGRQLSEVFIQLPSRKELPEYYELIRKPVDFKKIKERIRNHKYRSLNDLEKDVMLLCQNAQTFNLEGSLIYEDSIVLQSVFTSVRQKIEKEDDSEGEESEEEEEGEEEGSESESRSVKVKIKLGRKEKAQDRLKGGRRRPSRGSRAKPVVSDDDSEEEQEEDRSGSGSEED
- Test details: HiBiT-BRG1 cell-based degradation assay (Nano-Glo HiBiT Lytic Detection)
- Conditions used: stable HeLa cell line expressing HiBit-BRG1 and LgBit, 24 h incubation; read-out: BRMG1 HiBit Degradation IC50
Assay metric: DC50

I have this molecule here, Cc1ncsc1-c1ccc([C@H](C)NC(=O)[C@@H]2C[C@@H](O)CN2C(=O)[C@@H](c2cc(C3CCN(C(=O)CN4CC(c5cc6cc(-c7ccccc7O)nnc6s5)C4)CC3)no2)C(C)C)cc1 , and I need its recorded DC50.
≥ 1 µM

Input Cc1ncsc1-c1ccc([C@H](C)NC(=O)[C@@H]2C[C@@H](O)CN2C(=O)[C@@H](c2cc(N3C[C@H]4C[C@@H]3CN4C(=O)[C@H]3CCc4sc5nnc(-c6ccccc6O)cc5c4C3)no2)C(C)C)cc1
≥ 0.1 µM

Input Cc1ncsc1-c1ccc([C@H](C)NC(=O)[C@@H]2C[C@@H](O)CN2C(=O)[C@@H](c2cc(O[C@H]3CC[C@@H]3N3CCC(c4sc5nnc(-c6ccccc6O)cc5c4C)CC3)no2)C(C)C)cc1
≥ 1 µM

Input Cc1ncsc1-c1ccc(CNC(=O)[C@@H]2C[C@@H](O)CN2C(=O)[C@@H](NC(=O)[C@H]2CC[C@H](c3cnc(N4CCC(c5sc6nnc(-c7ccccc7O)cc6c5C)CC4)nc3)CC2)C(C)(C)C)cc1
≥ 0.1 µM

Input Cc1ncsc1-c1ccc([C@H](C)NC(=O)[C@@H]2C[C@@H](O)CN2C(=O)[C@@H](c2cc(N3CCC(C(=O)N4CC(c5cc6nnc(-c7ccccc7O)cc6s5)C4)CC3)no2)C(C)C)cc1
≥ 1 µM
